assay: P-glycoprotein substrates identified in KB-3-1 adenocarcinoma cell line, qHTS therapeutic library screen (AID 1346986); details: KB-3-1 parental cells viability, CellTiter-Glo, 72 h; series mostly up to 44.5 µM; further: nearly all actives have a fitted effect of over 60% in size
Inconclusive results are not listed. Calls of active or inactive are those of the source. The call rests on the fitted dose curve; in most records, active means well fitted inhibition curve with a large enough effect; inconclusive means small, poorly fitted or top-dose-only effect; inactive means no such curve, though single readings can be large or run the other way.
Choose the fitting class; nothing outside True = active, False = inactive is accepted.

GET /call?item= CC(=O)C1=C(O)C=C2Oc3c(C(C)=O)c(O)c(C)c(O)c3C2(C)C1=O (stereo unspecified) returns the recorded outcome of this test.
False

Each compound tested received a call. Report the one for COc1ccc(Nc2cc(-c3cnc(N)nc3)nc(N3CCOCC3)n2)cn1 .
True

Query: recorded result category for COc1cc(C)c(Sc2cnc(NC(=O)c3ccc(CNC(C)C(C)(C)C)cc3)s2)cc1C(=O)N1CCN(C(C)=O)CC1 (stereo unspecified) in this test
False

In this assay, the call recorded for COc1ccc2cc([S+]([O-])Cc3ncc(C)c(OC)c3C)nc2c1 was what?
False

Record lookup: outcome of this test for CCCNS(=O)(=O)Nc1ncnc(OCCOc2ncc(Br)cn2)c1-c1ccc(Br)cc1 ?
False

Entry C=C1C[C@@]2(O)O[C@@]3(C[C@H]2C(C)C)[C@H](C)CC[C@H]13 : call = ?
False

Record request — test call for Cc1ccc2nc(NCCN)c3ncc(C)n3c2c1
True

What outcome does the record of this test show for CCNC(=O)Nc1ccc(-c2nc3c(c(N4CCOC[C@H]4C)n2)CCN(C2COC2)C3)cc1 ?
True

Would you mind telling me which call this test gave CC(=O)N1CCN(c2ccc(OCc3nn(C)c(C)c3-c3cccc4c(CCCOc5cccc6ccccc56)c(C(=O)O)n(Cc5cccnc5)c34)cc2)CC1 ?
False

Please share the test call associated with N#CC(=Cc1ccc(O)c(O)c1)C(=O)NCc1ccccc1 .
False

Please let me know the test result on file for CCCCCCCCCCCCCCCC(=O)OC[C@@H](NC(=O)C(Cl)Cl)[C@H](O)c1ccc([N+](=O)[O-])cc1 .
False

Field: outcome | Entry: CC1(C)[C@H](O[C@H]2O[C@H](C(=O)O)[C@@H](O)[C@H](O)[C@H]2O[C@@H]2O[C@H](C(=O)O)[C@@H](O)[C@H](O)[C@H]2O)CC[C@@]2(C)[C@H]1CC[C@]1(C)[C@H]2C(=O)C=C2[C@H]3C[C@@](C)(C(=O)O)CC[C@]3(C)CC[C@]21C
False

Dear all, I need the recorded test outcome for Cc1cn([C@@H]2O[C@H](CO)[C@@H](O)[C@H]2F)c(=O)[nH]c1=O , thank you.
False

State the result this test recorded for CS(=O)(=O)N1CCc2c(-c3cnc(N)nc3)nc(N3CCOCC3)nc21 .
True

Recorded call for CC1=C(C(=O)Nc2cc3cn[nH]c3cc2F)C(c2ccc(Cl)cc2F)N=C(c2ccnc(Cl)c2)N1 (stereo unspecified) ?
True

Hi, sorry to bother you, what did the test record for Cc1cc(C(=O)NOCCO)c(Nc2ccc(I)cc2F)n(C)c1=O ?
False
